assay-procedure: Molar enthalpy of transition or fusion
stated-conditions: Crystal 1; DSC
property-label: Molar enthalpy of transition or fusion (kcal/mol)

The following compounds have reported results that may help.
# compound, Molar enthalpy of transition or fusion (kcal/mol)
data = [
    ("CCCCCCCCCCCCCCCCCCC(=O)[O-].[Li+] [lithium nonadecanoate]", 3.69),
    ("CCCCCCCCCCCCCCCC(=O)[O-].[Li+] [lithium hexadecanoate]", 3.77),
    ("CCCCCCCCCCCCCCCCC(=O)[O-].[Li+] [lithium heptadecanoate]", 3.2),
]

(P) CCCCCCCCC(=O)[O-].[Li+] [lithium nonanoate]
(Q) CCCCCCCCCCCCC(=O)[O-].[Li+] [lithium tridecanoate]
Parameter metric = Molar enthalpy of transition or fusion. Return the lower-valued option from P and Q . // respond with label for picked entry
Q
(Q: 3.32 kcal/mol, P: 5.4 kcal/mol)

====

stated-conditions: Crystal 1; DTA
property-label: Triple point temperature (K)

# molecule, property-label, reported-measurement
measured = [
    ("CCCCCCCCCCCCCCCCCC(=O)[O-].[Li+] [lithium octadecanoate]", "Triple point temperature", 499.85),
    ("CCCCCCCCCCCCCCC(=O)[O-].[Li+] [lithium pentadecanoate]", "Triple point temperature", 501.25),
    ("CCCCCCCCCCCCCCCC(=O)[O-].[Li+] [lithium hexadecanoate]", "Triple point temperature", 500.89),
    ("CCCCCCCCCCCCCCCCC(=O)[O-].[Li+] [lithium heptadecanoate]", "Triple point temperature", 498.85),
    ("CCCCCCCCCC(=O)[O-].[Li+] [lithium decanoate]", "Triple point temperature", 516.6),
]

====

assay-procedure: Molar enthalpy of transition or fusion
stated-conditions: Crystal 1; DSC
property-label: Molar enthalpy of transition or fusion (kcal/mol)

Below, each entry is followed by its recorded Molar enthalpy of transition or fusion result.
# compound, unit-name, Molar enthalpy of transition or fusion
measured = [
    ("CCCCCCCCCCCC(=O)[O-].[Li+] [lithium dodecanoate]", "kcal/mol", 6.26),
    ("CCCCCCCCCCCCCC(=O)[O-].[Li+] [lithium tetradecanoate]", "kcal/mol", 6.06),
    ("CCCCCCCCCCCCCCC(=O)[O-].[Li+] [lithium pentadecanoate]", "kcal/mol", 3.86),
]

(1) CCCCCCCCCC(=O)[O-].[Li+] [lithium decanoate]
(2) CCCCCCCCCCCCCCCCCC(=O)[O-].[Li+] [lithium octadecanoate]
Which shows the larger Molar enthalpy of transition or fusion value: 1 or 2 ? Lab log: write the label of the selected item as the result.
1

====

stated-conditions: Crystal 1; DTA
property-label: Triple point temperature (K)

# compound, Triple point temperature, K
records = [
    ("CCCCCCCCCCCCCCCCCCC(=O)[O-].[Li+] [lithium nonadecanoate]", 496.35),
    ("CCCCCCCCCCCC(=O)[O-].[Li+] [lithium dodecanoate]", 501.95),
    ("CCCCCCCCC(=O)[O-].[Li+] [lithium nonanoate]", 524.1),
    ("CCCCCCCCCCCCCC(=O)[O-].[Li+] [lithium tetradecanoate]", 502.4),
    ("CCCCCCCCCCCCC(=O)[O-].[Li+] [lithium tridecanoate]", 504.27),
]

====

stated-conditions: 293 K; 101.33 kPa; Crystal 2; Flotation in CCl4 and Heptane
property-label: mass density (kg/m3)

# molecule, unit-name, mass density
data = [
    ("CCCCCCCCCCCCCCCCCCC(=O)[O-].[Li+] [lithium nonadecanoate]", "kg/m3", 1080),
    ("CCCCCCCCCC(=O)[O-].[Li+] [lithium decanoate]", "kg/m3", 1080),
    ("CCCCCCCCC(=O)[O-].[Li+] [lithium nonanoate]", "kg/m3", 1120),
    ("CCCCCCCCCCCCCC(=O)[O-].[Li+] [lithium tetradecanoate]", "kg/m3", 1050),
    ("CCCCCCCCCCCCCCCCC(=O)[O-].[Li+] [lithium heptadecanoate]", "kg/m3", 1090),
    ("CCCCCCCCCCCCCCC(=O)[O-].[Li+] [lithium pentadecanoate]", "kg/m3", 1100),
]

====

stated-conditions: 293 K; 101.33 kPa; Crystal 2; Flotation in CCl4 and Heptane
property-label: mass density (kg/m3)

# compound, unit-name, reported-measurement
data = [
    ("CCCCCCCCCCCCC(=O)[O-].[Li+] [lithium tridecanoate]", "kg/m3", 1100),
    ("CCCCCCCCCCC(=O)[O-].[Li+] [lithium undecanoate]", "kg/m3", 1120),
    ("CCCCCCCCCCCC(=O)[O-].[Li+] [lithium dodecanoate]", "kg/m3", 1060),
    ("CCCCCCCCCCCCCCCC(=O)[O-].[Li+] [lithium hexadecanoate]", "kg/m3", 1050),
    ("CCCCCCCCCCCCCCCCCC(=O)[O-].[Li+] [lithium octadecanoate]", "kg/m3", 1040),
]
